Entry source: BigSolDB 2.1

EXPERIMENTAL_PARAMETERS: in isopropanol, 303.15 K
ASSAY_METRIC: solubility (mole fraction)

`O=C(O)c1cc(=O)[nH]c(=O)[nH]1` has a reported solubility (mole fraction) of 3.36e-05

====

EXPERIMENTAL_PARAMETERS: in methanol, 293.15 K
ASSAY_METRIC: solubility (mole fraction)

`O=C(O)c1cc(=O)[nH]c(=O)[nH]1` has a reported solubility (mole fraction) of 7.19e-05

====

EXPERIMENTAL_PARAMETERS: in n-butanol, 293.15 K
ASSAY_METRIC: solubility (mole fraction)
Give bare numbers.

`O=C(O)c1cc(=O)[nH]c(=O)[nH]1` has a reported solubility (mole fraction) of 2.53e-05

====

EXPERIMENTAL_PARAMETERS: in water, 278.15 K
ASSAY_METRIC: solubility (mole fraction)

`O=C(O)c1cc(=O)[nH]c(=O)[nH]1` has a reported solubility (mole fraction) of 4.57e-05

====

EXPERIMENTAL_PARAMETERS: in DMF, 278.15 K
ASSAY_METRIC: solubility (mole fraction)
Numbers only.

`O=C(O)c1cc(=O)[nH]c(=O)[nH]1` has a reported solubility (mole fraction) of 0.00242

====

EXPERIMENTAL_PARAMETERS: in n-propanol, 318.15 K
ASSAY_METRIC: solubility (mole fraction)
Answers are plain numbers.

`O=C(O)c1cc(=O)[nH]c(=O)[nH]1` has a reported solubility (mole fraction) of 7.17e-05

====

EXPERIMENTAL_PARAMETERS: in water, 308.15 K
ASSAY_METRIC: solubility (mole fraction)
One number for each entry.

`O=C(O)c1cc(=O)[nH]c(=O)[nH]1` has a reported solubility (mole fraction) of 9.5e-05

====

EXPERIMENTAL_PARAMETERS: in n-propanol, 283.15 K
ASSAY_METRIC: solubility (mole fraction)
Numbers only.

`O=C(O)c1cc(=O)[nH]c(=O)[nH]1` has a reported solubility (mole fraction) of 2.57e-05

====

EXPERIMENTAL_PARAMETERS: in DMSO, 318.15 K
ASSAY_METRIC: solubility (mole fraction)
Give bare numbers.

`O=C(O)c1cc(=O)[nH]c(=O)[nH]1` has a reported solubility (mole fraction) of 0.0781

====

EXPERIMENTAL_PARAMETERS: in n-propanol, 303.15 K
ASSAY_METRIC: solubility (mole fraction)
Give bare numbers.

`O=C(O)c1cc(=O)[nH]c(=O)[nH]1` has a reported solubility (mole fraction) of 4.61e-05

====

EXPERIMENTAL_PARAMETERS: in THF, 293.15 K
ASSAY_METRIC: solubility (mole fraction)
One number for each entry.

`O=C(O)c1cc(=O)[nH]c(=O)[nH]1` has a reported solubility (mole fraction) of 0.0001

====

EXPERIMENTAL_PARAMETERS: in isopropanol, 298.15 K
ASSAY_METRIC: solubility (mole fraction)
One number for each entry.

`O=C(O)c1cc(=O)[nH]c(=O)[nH]1` has a reported solubility (mole fraction) of 2.67e-05

====

EXPERIMENTAL_PARAMETERS: in methyl acetate, 288.15 K
ASSAY_METRIC: solubility (mole fraction)
Give bare numbers.

`O=C(O)c1cc(=O)[nH]c(=O)[nH]1` has a reported solubility (mole fraction) of 1.03e-05

====

EXPERIMENTAL_PARAMETERS: in ethanol, 288.15 K
ASSAY_METRIC: solubility (mole fraction)
Answers are plain numbers.

`O=C(O)c1cc(=O)[nH]c(=O)[nH]1` has a reported solubility (mole fraction) of 2.09e-05

====

EXPERIMENTAL_PARAMETERS: in DMF, 288.15 K
ASSAY_METRIC: solubility (mole fraction)
Answers are plain numbers.

`O=C(O)c1cc(=O)[nH]c(=O)[nH]1` has a reported solubility (mole fraction) of 0.00382

====

EXPERIMENTAL_PARAMETERS: in methyl acetate, 323.15 K
ASSAY_METRIC: solubility (mole fraction)

`O=C(O)c1cc(=O)[nH]c(=O)[nH]1` has a reported solubility (mole fraction) of 1.76e-05

====

EXPERIMENTAL_PARAMETERS: in ethyl acetate, 313.15 K
ASSAY_METRIC: solubility (mole fraction)
Give bare numbers.

`O=C(O)c1cc(=O)[nH]c(=O)[nH]1` has a reported solubility (mole fraction) of 1.8e-06

====

EXPERIMENTAL_PARAMETERS: in n-propanol, 298.15 K
ASSAY_METRIC: solubility (mole fraction)
Numbers only.

`O=C(O)c1cc(=O)[nH]c(=O)[nH]1` has a reported solubility (mole fraction) of 3.97e-05

====

EXPERIMENTAL_PARAMETERS: in water, 298.15 K
ASSAY_METRIC: solubility (mole fraction)
Numbers only.

`O=C(O)c1cc(=O)[nH]c(=O)[nH]1` has a reported solubility (mole fraction) of 7.56e-05

====

EXPERIMENTAL_PARAMETERS: in n-propanol, 293.15 K
ASSAY_METRIC: solubility (mole fraction)
Answers are plain numbers.

`O=C(O)c1cc(=O)[nH]c(=O)[nH]1` has a reported solubility (mole fraction) of 3.42e-05

====

EXPERIMENTAL_PARAMETERS: in n-propanol, 323.15 K
ASSAY_METRIC: solubility (mole fraction)
Numbers only.

`O=C(O)c1cc(=O)[nH]c(=O)[nH]1` has a reported solubility (mole fraction) of 8.18e-05

====

EXPERIMENTAL_PARAMETERS: in water, 293.15 K
ASSAY_METRIC: solubility (mole fraction)
One number for each entry.

`O=C(O)c1cc(=O)[nH]c(=O)[nH]1` has a reported solubility (mole fraction) of 6.68e-05

====

EXPERIMENTAL_PARAMETERS: in methanol, 308.15 K
ASSAY_METRIC: solubility (mole fraction)
Answers are plain numbers.

`O=C(O)c1cc(=O)[nH]c(=O)[nH]1` has a reported solubility (mole fraction) of 0.000115

====

EXPERIMENTAL_PARAMETERS: in isopropanol, 313.15 K
ASSAY_METRIC: solubility (mole fraction)

`O=C(O)c1cc(=O)[nH]c(=O)[nH]1` has a reported solubility (mole fraction) of 5.2e-05

====

EXPERIMENTAL_PARAMETERS: in isopropanol, 293.15 K
ASSAY_METRIC: solubility (mole fraction)
Give bare numbers.

`O=C(O)c1cc(=O)[nH]c(=O)[nH]1` has a reported solubility (mole fraction) of 2.12e-05

====

EXPERIMENTAL_PARAMETERS: in isopropanol, 288.15 K
ASSAY_METRIC: solubility (mole fraction)
Give bare numbers.

`O=C(O)c1cc(=O)[nH]c(=O)[nH]1` has a reported solubility (mole fraction) of 1.72e-05

====

EXPERIMENTAL_PARAMETERS: in methyl acetate, 278.15 K
ASSAY_METRIC: solubility (mole fraction)

`O=C(O)c1cc(=O)[nH]c(=O)[nH]1` has a reported solubility (mole fraction) of 8.8e-06

====

EXPERIMENTAL_PARAMETERS: in ethyl acetate, 298.15 K
ASSAY_METRIC: solubility (mole fraction)
Give bare numbers.

`O=C(O)c1cc(=O)[nH]c(=O)[nH]1` has a reported solubility (mole fraction) of 1.4e-06

====

EXPERIMENTAL_PARAMETERS: in n-propanol, 313.15 K
ASSAY_METRIC: solubility (mole fraction)
One number for each entry.

`O=C(O)c1cc(=O)[nH]c(=O)[nH]1` has a reported solubility (mole fraction) of 6.09e-05

====

EXPERIMENTAL_PARAMETERS: in DMF, 303.15 K
ASSAY_METRIC: solubility (mole fraction)
Numbers only.

`O=C(O)c1cc(=O)[nH]c(=O)[nH]1` has a reported solubility (mole fraction) of 0.0071
